target: PIK3CA (human); assay: Inhibition of PIK3CA Kinase Activity
property_measured: IC50

These solved cases illustrate the format of a correct answer.
Entry `CC1(C)CCc2ncnc(N3CCOc4ccc(-c5cnc(F)c(NS(C)(=O)=O)c5)cc4C3)c2C1` has what IC50?
0.05 to 0.25 µM

Entry `Cc1nc2ccc(-c3ccc4c(c3)CN(c3nc(CN5CC[C@H](F)C5)nc5c3CC(C)(C)CC5)CCO4)cc2[nH]1` has what IC50?
0.01 to 0.05 µM

Entry `Cc1nc(CN(C)C)nc(N2CCOc3ccc(-c4cnc5sc(N)nc5c4)cc3C2)c1CC1CC1` has what IC50?
≤ 0.01 µM

Entry `CN(C)Cc1nc2c(c(N3CCOc4ccc(-c5ccc(-c6ncc[nH]6)cc5)cc4C3)n1)CC(C)(C)CC2` has what IC50?
≤ 0.01 µM

Entry CC1(C)CCc2ncnc(N3CCOc4ccc(-c5cnc(N)c(S(=O)(=O)NCC6CCCNC6)c5)cc4C3)c2C1 (stereo not drawn) has what IC50?
0.01 to 0.05 µM

More entries:
Entry `CCc1c(C)ncnc1N1CCOc2ccc(-c3ccc4nc(C)[nH]c4c3)cc2C1` has what IC50?
0.05 to 0.25 µM

Entry `COCCOCc1nc2c(c(N3CCOc4ccc(-c5cnc6nc(C)[nH]c6c5)cc4C3)n1)CC(C)(C)CC2` has what IC50?
0.01 to 0.05 µM

---

pIC50: −log10 of the molar value.
Let's go through some pIC50 measurements on UniProt:P42336 together.

These solved cases illustrate the format of a correct answer.
Entry `Cc1nc2ccc(-c3ccc4c(c3)CN(c3ncnc(C)c3Cc3ccc(F)c(F)c3)CCO4)cc2[nH]1` has what pIC50?
7.30 to 8.00

Entry `CCNc1nc2ccc(-c3ccc4c(c3)CN(c3ccnc5ccc(OC)cc35)CCO4)cc2[nH]1` has what pIC50?
7.30 to 8.00

Entry `CCc1nc2ccc(-c3ccc4c(c3)CN(c3ncnc5c3CC(C)(C)CC5)CCO4)cc2[nH]1` has what pIC50?
6.60 to 7.30

Entry `Cc1nc(CNCCF)nc(N2CCOc3ccc(-c4cnc5sc(N)nc5c4)cc3C2)c1C(C)C` has what pIC50?
≥ 8.00

Entry `CC(C)(N)CNS(=O)(=O)c1cc(-c2ccc3c(c2)CN(c2ncnc4c2CC(C)(C)CC4)CCO3)cnc1N` has what pIC50?
6.60 to 7.30

Entry `Cc1nc2ccc(-c3ccc4c(c3)CN(c3nccc5ccccc35)CCO4)cc2[nH]1` has what pIC50?
6.60 to 7.30

Entry `CCOC(=O)c1nc(N2CCOc3ccc(-c4ccc5nc(C)[nH]c5c4)cc3C2)c2ccccc2n1` has what pIC50?
6.60 to 7.30

Moving on to another molecule below.
Entry `COc1ccc2c(N3CCOc4ccc(-c5ccc6nc(C)[nH]c6c5)cc4C3)ncnc2c1` has what pIC50?
≥ 8.00

---

molecular target: PIK3CA (human) (UniProt P42336); assay: Inhibition of PIK3CA Kinase Activity
Sequence (P42336 whole entry, looked up): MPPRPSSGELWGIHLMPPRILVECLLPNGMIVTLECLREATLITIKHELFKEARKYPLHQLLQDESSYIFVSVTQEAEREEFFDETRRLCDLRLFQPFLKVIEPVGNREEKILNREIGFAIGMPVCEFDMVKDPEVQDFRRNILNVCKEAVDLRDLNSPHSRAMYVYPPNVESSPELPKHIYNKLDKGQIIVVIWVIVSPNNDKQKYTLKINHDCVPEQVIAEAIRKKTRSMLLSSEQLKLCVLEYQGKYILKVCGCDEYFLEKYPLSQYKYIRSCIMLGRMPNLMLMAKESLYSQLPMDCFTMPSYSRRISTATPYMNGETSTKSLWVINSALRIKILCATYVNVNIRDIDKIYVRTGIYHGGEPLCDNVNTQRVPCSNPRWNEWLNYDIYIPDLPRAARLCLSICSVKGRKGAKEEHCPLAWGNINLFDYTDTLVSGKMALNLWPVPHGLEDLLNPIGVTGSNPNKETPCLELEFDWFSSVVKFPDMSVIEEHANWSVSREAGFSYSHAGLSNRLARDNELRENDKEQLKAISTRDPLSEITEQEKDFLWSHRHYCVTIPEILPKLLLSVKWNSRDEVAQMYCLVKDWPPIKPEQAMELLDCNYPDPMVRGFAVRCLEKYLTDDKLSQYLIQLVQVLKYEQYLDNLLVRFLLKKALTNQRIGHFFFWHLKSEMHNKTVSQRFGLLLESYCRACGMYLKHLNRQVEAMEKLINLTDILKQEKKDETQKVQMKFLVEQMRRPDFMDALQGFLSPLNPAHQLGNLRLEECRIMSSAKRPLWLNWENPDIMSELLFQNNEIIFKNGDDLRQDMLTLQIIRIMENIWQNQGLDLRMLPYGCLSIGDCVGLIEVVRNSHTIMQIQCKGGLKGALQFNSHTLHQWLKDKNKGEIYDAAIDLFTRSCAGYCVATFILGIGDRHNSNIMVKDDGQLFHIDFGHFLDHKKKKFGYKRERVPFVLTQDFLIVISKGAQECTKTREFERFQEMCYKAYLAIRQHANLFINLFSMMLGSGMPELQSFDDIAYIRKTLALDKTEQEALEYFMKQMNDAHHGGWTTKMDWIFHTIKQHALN
pIC50: −log10 of the molar value.
The reader will find reported pIC50 values listed item by item below.

These solved cases illustrate the format of a correct answer.
Entry `Cc1nc2ccc(-c3ccc4c(c3)CN(c3ncnc5cc(Cl)ccc35)CCO4)cc2[nH]1` has what pIC50?
6.60 to 7.30

Entry `CC(C)(O)CNS(=O)(=O)c1cc(-c2ccc3c(c2)CN(c2ncnc4c2CC(C)(C)CC4)CCO3)cnc1N` has what pIC50?
7.30 to 8.00

Entry `CCc1ncnc(N2CCOc3ccc(-c4ccc5nc(C)[nH]c5c4)cc3C2)c1CC` has what pIC50?
6.60 to 7.30

Entry `CNC(=O)c1ccc(-c2ccc3c(c2)CN(c2ccnc4ccccc24)CCO3)cc1` has what pIC50?
6.60 to 7.30

Entry `CCCc1nc2ccc(-c3ccc4c(c3)CN(c3ccnc5ccccc35)CCO4)cc2[nH]1` has what pIC50?
6.60 to 7.30

More entries:
Entry `Cc1nc2ccc(-c3ccc4c(c3)CN(c3ncnc5c(Cl)cccc35)CCO4)cc2[nH]1` has what pIC50?
7.30 to 8.00
